Collected chromatographic logP values appear next to each entry.
experiment: log P by HPLC on reversed phase columns (Method L0; [a] acidic, [b] neutral range)
endpointName: chromatographic logP

| molecule | dataValue |
| --- | --- |
| Cc1nn2c(C(C)C)c(C(=O)N[C@H]3CCOc4ccccc43)cnc2c1-c1cccc2c1OC(F)(F)O2 [Example 257] | 4.87 |
| Cc1nn2c(C(C)C)c(C(=O)N[C@H]3CCOc4ccccc43)cnc2c1-c1cc(F)c(Cl)c(F)c1 [Example 190] | 5.39 |
| Cc1nn2c(C(C)C)c(C(=O)NC3CCCc4ccccc43)cnc2c1-c1cccc(C(F)(F)F)c1 (stereo not shown) [Example 2] | 5.59 |
| Cc1nn2c(N(C)C)c(C(=O)N[C@H]3CCOc4ccccc43)cnc2c1-c1cc(Cl)cc(Cl)c1 [Example 520] | 4.92 |
| Cc1nn2c(C(C)C)c(C(=O)N[C@H]3CCOc4ccccc43)cnc2c1-c1ccc2c(c1)N(C)CC2 [Example 238] | 4.13 |
| Cc1c(C(=O)N[C@H]2CCc3ccccc32)cnc2c(-c3ccccc3Cl)c(Cl)nn12 [Example 74] | 3.99 |
| Cc1nn2c(C3CC3)c(C(=O)N[C@H]3CCc4ccccc43)cnc2c1-c1cccc(N2CC(C#N)C2)c1 [Example 460] | 3.44 |

###

target: UniProtKB Q95V25; assay: In vitro assay 1: C. elegans Slo-1a, action at a recombinant C. elegans CHO cell line (membrane potential measurement)
Sequence (Q95V25 whole entry): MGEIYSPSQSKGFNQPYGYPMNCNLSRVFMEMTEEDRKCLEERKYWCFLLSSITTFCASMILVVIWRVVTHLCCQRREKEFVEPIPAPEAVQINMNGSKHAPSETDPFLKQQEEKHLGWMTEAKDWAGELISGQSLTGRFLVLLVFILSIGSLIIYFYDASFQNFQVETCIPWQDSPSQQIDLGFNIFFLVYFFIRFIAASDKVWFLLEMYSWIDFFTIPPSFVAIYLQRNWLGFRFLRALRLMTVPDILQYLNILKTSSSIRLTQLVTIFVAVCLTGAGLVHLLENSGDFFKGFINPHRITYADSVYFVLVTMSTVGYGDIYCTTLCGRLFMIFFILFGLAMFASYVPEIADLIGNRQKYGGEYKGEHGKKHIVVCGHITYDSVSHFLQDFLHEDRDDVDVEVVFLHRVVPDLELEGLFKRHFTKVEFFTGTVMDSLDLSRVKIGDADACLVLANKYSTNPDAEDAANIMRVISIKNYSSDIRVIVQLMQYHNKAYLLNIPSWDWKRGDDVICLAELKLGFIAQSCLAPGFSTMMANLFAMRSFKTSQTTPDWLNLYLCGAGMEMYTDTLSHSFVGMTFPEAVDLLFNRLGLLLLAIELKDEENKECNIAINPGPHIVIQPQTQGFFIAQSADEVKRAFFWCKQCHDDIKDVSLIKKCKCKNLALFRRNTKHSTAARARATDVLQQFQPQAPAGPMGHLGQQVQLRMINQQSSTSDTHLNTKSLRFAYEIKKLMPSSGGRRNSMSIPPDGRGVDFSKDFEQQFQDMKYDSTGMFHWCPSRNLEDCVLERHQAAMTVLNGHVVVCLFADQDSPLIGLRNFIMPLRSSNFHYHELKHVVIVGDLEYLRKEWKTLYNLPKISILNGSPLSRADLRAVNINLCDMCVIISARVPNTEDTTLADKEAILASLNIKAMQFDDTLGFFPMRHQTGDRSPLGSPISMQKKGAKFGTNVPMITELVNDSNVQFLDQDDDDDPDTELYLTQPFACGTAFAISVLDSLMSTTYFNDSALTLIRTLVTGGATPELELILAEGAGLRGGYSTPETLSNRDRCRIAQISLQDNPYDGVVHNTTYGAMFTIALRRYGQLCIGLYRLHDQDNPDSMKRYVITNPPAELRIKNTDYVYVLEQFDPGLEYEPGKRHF
Collected EC50 values appear next to each entry.

| structureAsSmiles | EC50 |
| --- | --- |
| Cc1nn2c(C3CC3)c(C(=O)N[C@H]3CCOc4ccccc43)cnc2c1-c1cccc(Cl)c1 | 6.31 nM |
| CC(C)c1c(C(=O)N[C@H]2CCc3ccccc32)cnc2c(-c3cccc(Cl)c3)c(C(F)(F)F)nn12 | 251 nM |
| COc1cc(-c2c(C)nn3c(C(C)C)c(C(=O)N[C@H]4CCOc5ccccc54)cnc23)ccc1F | 6.31 nM |
| CNc1ccc(-c2c(C)nn3c(C(C)C)c(C(=O)N[C@H]4CCc5ccccc54)cnc23)cc1 | 200 nM |
| Cc1nn2c(C(C)C)c(C(=O)N[C@H]3CCCc4ccccc43)cnc2c1-c1cc(Cl)cc(Cl)c1F | 2.51 nM |
| CC(C)c1c(C(=O)N[C@H]2CCc3ccccc32)cnc2c(-c3ccccc3Cl)c(C(F)F)nn12 | 25.1 nM |
| Cc1nn2c(C(C)C)c(C(=O)N[C@H]3CCOc4ccccc43)cnc2c1-c1cccc2c1OCO2 | 2 nM |

###

assay: log P by HPLC on reversed phase columns (Method L0; [a] acidic, [b] neutral range)
endpointName: chromatographic logP

| structureAsSmiles | endpointName | dataValue |
| --- | --- | --- |
| Cc1nn2c(C(C)C)c(C(=O)N[C@H]3CCCc4ccccc43)cnc2c1-c1ccc(Cl)cc1Cl | chromatographic logP | 5.59 |
| Cc1nn2c(N(C)C)c(C(=O)N[C@H]3CCOc4ccccc43)cnc2c1-c1cccc(Cl)c1Cl | chromatographic logP | 3.94 |
| Cc1nn2c(C(C)C)c(C(=O)N[C@H]3CCc4ccccc43)cnc2c1-c1cccc(CN(C)C)c1 | chromatographic logP | 1.95 |
| COc1cccc(-c2c(C)nn3c(C(C)C)c(C(=O)N[C@H]4CCOc5ccccc54)cnc23)c1F | chromatographic logP | 2.84 |
| Cc1nn2c(C3CC3)c(C(=O)N[C@H]3CCOc4ccccc43)cnc2c1-c1ccc(Cl)nc1 | chromatographic logP | 2.96 |
| Cc1nn2c(C(C)C)c(C(=O)N[C@H]3CCc4ccccc43)cnc2c1-c1ccc(OC(F)F)cc1 | chromatographic logP | 4.66 |
| Cc1nn2c(C(C)C)c(C(=O)N[C@H]3CCc4ccccc43)cnc2c1-c1cccc(CS(C)(=O)=O)c1 | chromatographic logP | 3.39 |
